Measured CC50 values are reported for all entries that follow.
# Test system: SW-620
# Protocol: Cytotoxicity against human SW620 cells
# Format: functional
# Study conditions: read-out: Log LC50 (the source's name) (converted)

{"Molecule": "CC(=O)C1=CC[C@H]2[C@]3(C)CC[C@H]4C(C)(C)CCC[C@]4(C(=O)O)[C@H]3CC(=O)[C@]2(C)[C@H]1C=O", "Unit symbol": "µM", "CC50": 3.39}
{"Molecule": "CC(=O)O[C@@H]1C[C@H]2[C@]3(C)CC[C@H]4C(C)(C)CCC[C@]4(C)[C@H]3C[C@H](O)[C@]2(C)[C@@H](C=O)[C@@H]1C(C)=O [SCALARHERBACIN A]", "Unit symbol": "µM", "CC50": 1.07}
{"Molecule": "CC(=O)O[C@H]1C[C@H]2[C@@](C)(CC[C@H]3C(C)(C)CCC[C@@]32CO)[C@@H]2CC=C(C(C)=O)[C@H](C=O)[C@@]12C", "Unit symbol": "µM", "CC50": 0.676}
{"Molecule": "CC1OC(=O)[C@H]2[C@H]1[C@@H](O)C[C@H]1[C@]3(C)CC[C@H]4C(C)(C)CCC[C@]4(C)[C@H]3C[C@@H](O)[C@]21C (some centres undefined)", "Unit symbol": "µM", "CC50": 52.5}
